# System: 843782-103-R-J1-PDC complex spheroid viability
# protocol-details: Anticancer human tumor 843782-103-R-J1-PDC patient-derived lung adenocarcinoma cell line growth inhibition [RAS]
# condition-summary: second compound 0.00949 µM; first compound 0.1 µM; stronger effect = lower value
Each entry below carries its reported viability, T/C.
Unit % implied. Number only.

Use the examples below as a reference point.
- compound: "Cc1nc(N2CCC3(CC2)COC(C)C3N)c(CO)nc1Sc1ccnc(N)c1Cl (centres undefined) + CCn1c(-c2cccnc2C(C)OC)c2c3cc(ccc31)N1CCOC(CC(NC(=O)C(C(C)C)N(C)C(=O)C3(F)CCN(C(=O)C#CC(C)(C)N(C)C)CC3)C(=O)N3CCCC(N3)C(=O)OCC(C)(C)C2)C1"
  target-or-test-system: "843782-103-R-J1-PDC complex spheroid viability"
  unit-string: "%"
  value-observed: 44.2
- compound: "C=CC(=O)N1CCN(c2nc(OCC3CCCN3C)nc3c(F)c(-c4nc(N)cc(C)c4C(F)(F)F)c(Cl)cc23)C(C)C1 (centres undefined) + CCn1c(-c2cccnc2C(C)OC)c2c3cc(ccc31)N1CCOC(CC(NC(=O)C(C(C)C)N(C)C(=O)C3(F)CCN(C(=O)C#CC(C)(C)N(C)C)CC3)C(=O)N3CCCC(N3)C(=O)OCC(C)(C)C2)C1"
  target-or-test-system: "843782-103-R-J1-PDC complex spheroid viability"
  unit-string: "%"
  value-observed: 80.1
- compound: "NC1c2ccccc2OC12CCN(c1cnc3c(N4CCCc5ncccc54)n[nH]c3n1)CC2 (centres undefined) + CCn1c(-c2cc(N3CCN(C)CC3)cnc2C(C)OC)c2c3cc(ccc31)-c1csc(n1)CC(NC(=O)C1CC1C)C(=O)N1CCCC(N1)C(=O)OCC(C)(C)C2"
  target-or-test-system: "843782-103-R-J1-PDC complex spheroid viability"
  unit-string: "%"
  value-observed: 15.6

Query: # lookup: viability, T/C of Nc1ccn(C2OC(CO)C(O)C2(F)F)c(=O)n1 (centres undefined) + CCn1c(-c2cccnc2C(C)OC)c2c3cc(ccc31)N1CCOC(CC(NC(=O)C(C(C)C)N(C)C(=O)C3(F)CCN(C(=O)C#CC(C)(C)N(C)C)CC3)C(=O)N3CCCC(N3)C(=O)OCC(C)(C)C2)C1
Result: 2.07

====

# Tested on: 843782-103-R-J1-PDC complex spheroid viability
# protocol-details: Anticancer human tumor 843782-103-R-J1-PDC cell line growth inhibition [RAS];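 also: viability read after seven days of compound exposure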
# condition-summary: second compound 0.000949 µM; first compound 0.03 µM; stronger effect = lower value
# From the text: RAS pathway inhibitors in Combinations in Complex Spheroids A high-throughput screen of multi-cell type tumor spheroids was designed to identify active combinations of RAS pathway inhibitors and targeted small molecules. Complex spheroids include a stromal component modeled by human endothelial cells (HUVEC) and fibroblasts modeled by human mesenchymal stem cells (MSCs). […] Compounds. […] If the clinical Cmax for an agent had not been determined, the highest concentration tested was 10 microM. […]
experimental-endpoint: viability, T/C (%)
Unit % implied. Number only.

Use the examples below as a reference point.
- molecule: "CCc1c2c(nc3ccc(O)cc13)-c1cc3c(c(=O)n1C2)COC(=O)[C@]3(O)CC + CCn1c(-c2cc(N3CCN(C)CC3)cnc2C(C)OC)c2c3cc(ccc31)-c1csc(n1)CC(NC(=O)C1CC1C)C(=O)N1CCCC(N1)C(=O)OCC(C)(C)C2"
  target-or-test-system: "843782-103-R-J1-PDC complex spheroid viability"
  viability, T/C, %: 2.16
- molecule: "CCc1c2c(nc3ccc(O)cc13)-c1cc3c(c(=O)n1C2)COC(=O)[C@]3(O)CC + CCn1c(-c2cccnc2C(C)OC)c2c3cc(ccc31)N1CCOC(CC(NC(=O)C(C(C)C)N(C)C(=O)C3(F)CCN(C(=O)C#CC(C)(C)N(C)C)CC3)C(=O)N3CCCC(N3)C(=O)OCC(C)(C)C2)C1"
  target-or-test-system: "843782-103-R-J1-PDC complex spheroid viability"
  viability, T/C, %: 2.82
- molecule: "CC1(C)CCC(Nc2ncc(C(F)(F)F)c(-c3c[nH]c4c(P(C)(C)=O)c(C#N)ccc34)n2)CN1 (centres undefined) + CCn1c(-c2cccnc2C(C)OC)c2c3cc(ccc31)N1CCOC(CC(NC(=O)C(C(C)C)N(C)C(=O)C3(F)CCN(C(=O)C#CC(C)(C)N(C)C)CC3)C(=O)N3CCCC(N3)C(=O)OCC(C)(C)C2)C1"
  target-or-test-system: "843782-103-R-J1-PDC complex spheroid viability"
  viability, T/C, %: 26.6

Query: # lookup: viability, T/C of CC1(C)CCC(Nc2ncc(C(F)(F)F)c(-c3c[nH]c4c(P(C)(C)=O)c(C#N)ccc34)n2)CN1 (centres undefined) + CCn1c(-c2cc(N3CCN(C)CC3)cnc2C(C)OC)c2c3cc(ccc31)-c1csc(n1)CC(NC(=O)C1CC1C)C(=O)N1CCCC(N1)C(=O)OCC(C)(C)C2
Result: 14.2

====

# Test system: 843782-103-R-J1-PDC complex spheroid viability
# protocol-details: Anticancer human tumor 843782-103-R-J1-PDC cell line growth inhibition [RAS];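 also: viability read after seven days of compound exposure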
# condition-summary: second compound 0.00949 µM; first compound 3.16 µM; stronger effect = lower value
# Text: RAS pathway inhibitors in Combinations in Complex Spheroids A high-throughput screen of multi-cell type tumor spheroids was designed to identify active combinations of RAS pathway inhibitors and targeted small molecules. Complex spheroids include a stromal component modeled by human endothelial cells (HUVEC) and fibroblasts modeled by human mesenchymal stem cells (MSCs). […] Compounds. […] If the clinical Cmax for an agent had not been determined, the highest concentration tested was 10 microM. […]
experimental-endpoint: viability, T/C (%)
Unit % implied. Number only.

Use the examples below as a reference point.
- compound: "C[C@@H](NC(=O)c1ncnc(N)c1Cl)c1ncc(C(=O)Nc2cc(C(F)(F)F)c(Cl)cn2)s1 + CCn1c(-c2cccnc2C(C)OC)c2c3cc(ccc31)N1CCOC(CC(NC(=O)C(C(C)C)N(C)C(=O)C3(F)CCN(C(=O)C#CC(C)(C)N(C)C)CC3)C(=O)N3CCCC(N3)C(=O)OCC(C)(C)C2)C1"
  value-observed: 78.6
- compound: "CC(=O)OC12COC1CC(O)C1(C)C(=O)C(O)C3=C(C)C(OC(=O)C(O)C(NC(=O)OC(C)(C)C)c4ccccc4)CC(O)(C(OC(=O)c4ccccc4)C21)C3(C)C (centres undefined) + CCn1c(-c2cc(N3CCN(C)CC3)cnc2C(C)OC)c2c3cc(ccc31)-c1csc(n1)CC(NC(=O)C1CC1C)C(=O)N1CCCC(N1)C(=O)OCC(C)(C)C2"
  value-observed: 5.8
- compound: "CC(C)NCC(C(=O)N1CCN(c2ncnc3c2C(C)CC3O)CC1)c1ccc(Cl)cc1 (centres undefined) + CCn1c(-c2cc(N3CCN(C)CC3)cnc2C(C)OC)c2c3cc(ccc31)-c1csc(n1)CC(NC(=O)C1CC1C)C(=O)N1CCCC(N1)C(=O)OCC(C)(C)C2"
  value-observed: 8.4

Switching to the query record.
Query: # lookup: viability, T/C of NC1c2ccccc2OC12CCN(c1cnc3c(N4CCCc5ncccc54)n[nH]c3n1)CC2 (centres undefined) + CCn1c(-c2cc(N3CCN(C)CC3)cnc2C(C)OC)c2c3cc(ccc31)-c1csc(n1)CC(NC(=O)C1CC1C)C(=O)N1CCCC(N1)C(=O)OCC(C)(C)C2
Result: 12.8

====

# Test system: 843782-103-R-J1-PDC complex spheroid viability
# protocol-details: Anticancer human tumor 843782-103-R-J1-PDC cell line growth inhibition [RAS];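 also: viability read after seven days of compound exposure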
# condition-summary: second compound 0.0949 µM; first compound 0.00316 µM; stronger effect = lower value
Each entry below carries its reported viability, T/C.
Unit % implied. Number only.

- molecule: "C=CC(=O)N1CCN(c2nc(OCC3CCCN3C)nc3c(F)c(-c4nc(N)cc(C)c4C(F)(F)F)c(Cl)cc23)C(C)C1 (configuration not stated) + CCn1c(-c2cccnc2C(C)OC)c2c3cc(ccc31)N1CCOC(CC(NC(=O)C(C(C)C)N(C)C(=O)C3(F)CCN(C(=O)C#CC(C)(C)N(C)C)CC3)C(=O)N3CCCC(N3)C(=O)OCC(C)(C)C2)C1"
  unit-string: "%"
  viability, T/C: 81.6

Switching to the query record.
Query: Request: viability, T/C, test system 843782-103-R-J1-PDC complex spheroid viability, entry Nc1ccn(C2OC(CO)C(O)C2(F)F)c(=O)n1 (configuration not stated) + CCn1c(-c2cc(N3CCN(C)CC3)cnc2C(C)OC)c2c3cc(ccc31)-c1csc(n1)CC(NC(=O)C1CC1C)C(=O)N1CCCC(N1)C(=O)OCC(C)(C)C2
Result: 15.9

====

Each entry below carries its reported viability, T/C.
# Tested on: 843782-103-R-J1-PDC complex spheroid viability
# protocol-details: Anticancer human tumor 843782-103-R-J1-PDC cell line growth inhibition [RAS];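 also: viability read after seven days of compound exposure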
# condition-summary: second compound 0.03 µM; first compound 1 µM; stronger effect = lower value

- molecule: "CCN1CCN(Cc2ccc(Nc3ncc(F)c(-c4cc(F)c5nc(C)n(C(C)C)c5c4)n3)nc2)CC1 + CCn1c(-c2cc(N3CCN(C)CC3)cnc2C(C)OC)c2c3cc(ccc31)-c1csc(n1)CC(NC(=O)C1CC1C)C(=O)N1CCCC(N1)C(=O)OCC(C)(C)C2"
  viability, T/C: "17%"

Switching to the query record.
Query: Request: viability, T/C, test system 843782-103-R-J1-PDC complex spheroid viability, entry CC(C)NCC(C(=O)N1CCN(c2ncnc3c2C(C)CC3O)CC1)c1ccc(Cl)cc1 (configuration not stated) + CCn1c(-c2cc(N3CCN(C)CC3)cnc2C(C)OC)c2c3cc(ccc31)-c1csc(n1)CC(NC(=O)C1CC1C)C(=O)N1CCCC(N1)C(=O)OCC(C)(C)C2
Result: 9.92%
